# assay_remarks: NOD1 signaling inhibitors, primary screen, cell-based, luminescence, uHTS (AID 1578);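 note: HEK-293T reporter cells stimulated with the NOD1 agonist gamma-tri-DAP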
# run_conditions: NOD1-driven NF-kB luciferase reporter cells, at 4 µM
Screen size: about 290,000 compounds; about 3,000 (1%) were called active. Cut-off read from the data, not from the text of the source: active = inhibition mostly above about 36% (no sharp cut-off); inactive = mostly below about 34%. Only a selection was taken, and actives are over-represented in it overall.
Lab note: assign the record to one of true for active, false for inactive

In [3]: df
Out[3]:
                            molecule    cat
0  COc1ccc(CCNC(=S)Nc2cccc(C)c2C)cc1  false

Input: Answer briefly: the call reported for Cc1ccc(C(=O)N2CCCC(C(=O)c3ccc(Oc4ccccc4)cc3)C2)cn1 (stereo unspecified) in this assay.
Output: true

Input: Answer briefly: the call reported for Cc1ccnc(NC(=O)Nc2cccc(F)c2)n1 in this assay.
Output: false

Input: Answer briefly: the call reported for Cc1cc(Cl)c(S(=O)(=O)Nc2cc(S(=O)(=O)N3CCOCC3)ccc2F)cc1OCC(N)=O in this assay.
Output: false

Input: Answer briefly: the call reported for CCNc1ccc([N+](=O)[O-])cc1 in this assay.
Output: false

Input: Answer briefly: the call reported for N#CCSc1n[nH]c2nc3c(c(=O)n12)C1(CCCC1)Cc1ccccc1-3 in this assay.
Output: false

Input: Answer briefly: the call reported for CC(=O)Oc1ccc(N2C(=O)C3C4C=CC(CO)(O4)C3C2=O)cc1 (stereo unspecified) in this assay.
Output: false

---

# assay_remarks: NOD1 signaling inhibitors, primary screen, cell-based, luminescence, uHTS (AID 1578);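 note: HEK-293T reporter cells stimulated with the NOD1 agonist gamma-tri-DAP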
# run_conditions: NOD1-driven NF-kB luciferase reporter cells, at 4 µM
Screen size: about 290,000 compounds; about 3,000 (1%) were called active. No stated cut-off is given here; in the data, active means inhibition mostly above about 36% (no sharp cut-off); inactive means mostly below about 34%. The full list was thinned out, with actives kept by preference.
Lab note: assign the record to one of 1 = active, -1 = inactive

>>> print(df.to_string())
                              molecule  cat
0  CC(C)Oc1ccccc1/C=N/NC(=O)c1ccccc1Cl   -1

Input: Answer briefly: the call reported for COC(=O)c1ccc(NC(=O)NCCCl)cc1 in this assay.
Output: -1

Input: Answer briefly: the call reported for COCCCN=C1NN=C(c2cc(C)n(Cc3ccccc3Cl)c2C)CS1 in this assay.
Output: -1

Input: Answer briefly: the call reported for COCCn1c(C)cc(C2=NNC(=NC(C)(C)C)SC2)c1C in this assay.
Output: -1

---

# assay_remarks: NOD1 signaling inhibitors, primary screen, cell-based, luminescence, uHTS (AID 1578);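 note: HEK-293T reporter cells stimulated with the NOD1 agonist gamma-tri-DAP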
# run_conditions: NOD1-driven NF-kB luciferase reporter cells, at 4 µM, hits give high values
Hit rate of the full screen: of about 290,000 compounds, about 3,000 (1%) were called active. What follows is part of a selection rich in actives, with near analogues and random picks from the rest.
observed_property: inhibition (%)
# output: bare number, implied unit %

>>> print(df.to_string())
                                   molecule  observed_measurement
0  O=C(C1=NNCC1c1ccccc1)C1OC1c1ccccc1 (configuration not stated)                  15.8

// COc1ccc2c(C)cc(SC3CCOC3=O)nc2c1 (configuration not stated) : inhibition value = -1.1

// Cc1ccc(C(=O)NCc2ccc(F)cc2)cc1NC1=NC2CS(=O)(=O)CC2S1 (configuration not stated) : inhibition value = -41.2

// O=C(C1=NNCC1c1ccccc1)C1CO1 (configuration not stated) : inhibition value = -5.4

// CCc1cccc(NC(=O)c2cnn(-c3ccccc3)c2C)c1 : inhibition value = -1.5

// Cc1cccc(N(C(=O)CNC(=O)c2ccco2)C(C(=O)NC2CCCC2)c2ccncc2)c1 (configuration not stated) : inhibition value = -12.6

// CC(CN1CCOCC1)OC(=O)c1ccc(C(C)(C)C)cc1 (configuration not stated) : inhibition value = 68.1

// COc1ccc(OC)c(-c2csc(NC(=O)Cc3ccc(OC)c(OC)c3)n2)c1 : inhibition value = 25.1

// O=S(=O)(c1ccc(Cl)cc1)n1cnc2ccccc21 : inhibition value = -31.4

// O=C(C1=NNCC1c1ccc(Cl)cc1)C1CO1 (configuration not stated) : inhibition value = 88.4

// CCn1c2c(c3cc(Br)ccc31)CCC/C2=N\O : inhibition value = 15.3

// Oc1[nH]c(=S)sc1/C=C1\C(c2ccccc2)=Nc2ccccc21 : inhibition value = 72.5

---

# assay_remarks: NOD1 signaling inhibitors, primary screen, cell-based, luminescence, uHTS (AID 1578);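 note: HEK-293T reporter cells stimulated with the NOD1 agonist gamma-tri-DAP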
# run_conditions: NOD1-driven NF-kB luciferase reporter cells, at 4 µM
Among all 290,000 compounds or so, about 3,000 (1%) were called active. Rule as the data show it: active = inhibition mostly above about 36% (no sharp cut-off); inactive = mostly below about 34%. The full list was thinned out, with actives kept by preference.
Lab note: assign the record to one of active, inactive

Some solved cases for reference:
In [3]: df
Out[3]:
                                   compound       cat
0  O=C(NCCc1ccco1)C(=O)NCC1OCCCN1S(=O)(=O)c1ccc(F)cc1 (stereo not given)  inactive
1            Oc1ccccc1C1Nc2cccc3cccc(c23)N1  inactive
2  CCOc1ccc(NC(=O)C2CCCN(S(=O)(=O)c3cnc[nH]3)C2)cc1 (stereo not given)  inactive

Input: Answer briefly: the call reported for COc1ccc(-c2nc3ccccc3n2Cc2ccccc2)cc1 in this assay.
Output: inactive

Input: Answer briefly: the call reported for COc1ccc(-c2nc(CN3CCN(c4cc(C)nc(C)c4)CC3)c(C)o2)c2ccccc12 in this assay.
Output: inactive

Input: Answer briefly: the call reported for CC1=C(C(=O)N(C)C)C(c2cccc(Cl)c2)NC(=O)N1 (stereo not given) in this assay.
Output: inactive

Input: Answer briefly: the call reported for CCOC(=O)CSc1nc2c(sc(=S)n2Cc2ccco2)c(=O)n1-c1ccccc1 in this assay.
Output: inactive

Input: Answer briefly: the call reported for CC(C(=O)Nc1c2c(cc3c1CCC3)CCC2)N1CCCC1 (stereo not given) in this assay.
Output: active

Input: Answer briefly: the call reported for N#CCSc1nc2c(sc(=S)n2Cc2ccco2)c(=O)n1-c1ccc(F)cc1 in this assay.
Output: active

Input: Answer briefly: the call reported for COC(=O)Cc1csc(NC(=O)CSc2nnc3ccccn23)n1 in this assay.
Output: inactive

Input: Answer briefly: the call reported for COc1ccccc1-c1noc(-c2cc(OC)c(OC)c(OC)c2)n1 in this assay.
Output: inactive

Input: Answer briefly: the call reported for CCOc1cc(/C=C2\COc3ccccc3C2=O)ccc1OCC(=O)N(C)C in this assay.
Output: inactive

Input: Answer briefly: the call reported for CCN(CC)C(=O)Cn1cc(C(=O)C(=O)N2CCN(C)CC2)c2ccccc21 in this assay.
Output: inactive

Input: Answer briefly: the call reported for COc1ccccc1CC(=O)NC1CC1 in this assay.
Output: inactive

Input: Answer briefly: the call reported for CCOc1ccc(/C=N/NC(=O)C(=O)N2CCCCCC2)c2ccccc12 in this assay.
Output: inactive

Input: Answer briefly: the call reported for Cc1cccc(-n2ncc3c(N(C)Cc4ccccc4)ncnc32)c1 in this assay.
Output: inactive

Input: Answer briefly: the call reported for Cc1cc(C)c(NC(=O)C(C)N2CCCCCC2)c(C)c1 (stereo not given) in this assay.
Output: inactive

Input: Answer briefly: the call reported for O=c1c2cc(NC(=S)N3CCCCC3)ccc2nc2n1CCCCC2 in this assay.
Output: inactive

Input: Answer briefly: the call reported for Cc1ccc(CNc2nc(Cl)c(C#N)s2)cc1 in this assay.
Output: active

Input: Answer briefly: the call reported for Cc1n(Cc2ccccc2)c2ccccc2[n+]1Cc1ccccc1 in this assay.
Output: inactive

Input: Answer briefly: the call reported for C=CC[n+]1c(-c2ccc(C)cc2)csc1Nc1c(C)n(C)n(-c2ccccc2)c1=O in this assay.
Output: inactive

Input: Answer briefly: the call reported for CCOc1cc(/C=C2\COc3ccccc3C2=O)cc(Br)c1OCC(=O)N(C)C in this assay.
Output: active

Input: Answer briefly: the call reported for CCOc1cc(/C=C2/COc3ccccc3C2=O)ccc1OCC(=O)N(C)C in this assay.
Output: inactive

Input: Answer briefly: the call reported for C[n+]1c2n(c3ccccc31)N=C(c1ccc(-c3ccccc3)cc1)CS2 in this assay.
Output: inactive

Input: Answer briefly: the call reported for CC(=O)c1c(C)[nH]c(C(=O)Nc2ccccc2Cl)c1C in this assay.
Output: inactive

Input: Answer briefly: the call reported for C1=Nc2c(Nc3ccccc3)ncnc2Oc2ccccc21 in this assay.
Output: inactive

---

# assay_remarks: NOD1 signaling inhibitors, primary screen, cell-based, luminescence, uHTS (AID 1578);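 note: HEK-293T reporter cells stimulated with the NOD1 agonist gamma-tri-DAP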
# run_conditions: NOD1-driven NF-kB luciferase reporter cells, at 4 µM, hits give high values
Hit rate of the full screen: of about 290,000 compounds, about 3,000 (1%) were called active. The sample holds actives, similar compounds and a random draw of the others, so the mix is not that of the screen.
Quick reference: inhibition of the listed items.
# output: bare number, implied unit %

>>> print(df.to_string())
                                   compound  unit_label  observed_measurement
0  COc1cccc(/C=N/Nc2ncnc(N)c2[N+](=O)[O-])c1OC           %                  53.3
1  O=C(O)C(=O)/C(=C\c1cccc2ccccc12)c1ccc2ccccc2n1           %                   2.3
2             COc1cccc(Nc2nc(N)nc(CCl)n2)c1           %                  -7.5
3  O=S(=O)(c1ccc(S(=O)(=O)N2CCC(O)CC2)cc1)N1CCCC1           %                  29.3

Consider now this further compound.
// Cc1cccc(Nc2nc(N)nc(CN3CCN(C)CC3)n2)c1 : inhibition value = -6.7
